Attribution: the RNAGym collection of RNA variant scans (doi:10.1101/gad.245936.114)

B1: tRNA (parent)
chain: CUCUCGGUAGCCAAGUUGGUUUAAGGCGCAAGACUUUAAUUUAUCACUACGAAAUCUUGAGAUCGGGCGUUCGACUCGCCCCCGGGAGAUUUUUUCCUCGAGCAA

Variants of: B1
Assay: nonsense suppression (GFP-seq) (ratio to wild type); higher = more function; SUP4oc tRNA, yeast GFP reporter sort-seq
This sample holds only a part of the variants without activity.
# cutoff 0.2 applies to nonsense suppression; >= gives satisfied, < gives not satisfied

Study these solved cases before continuing.
INSERT INTO measurements (variant_string, class_name) VALUES
  ('A24U G85A A87G', 'satisfied'),
  ('U4G G73U', 'not satisfied'),
  ('C3G G85U', 'not satisfied'),
  ('U16C C27U', 'not satisfied'),
  ('G59A G66C', 'not satisfied'),
  ('G28A A54U', 'satisfied'),
  ('A9G C72G U76G G88U', 'not satisfied'),
  ('C3G G61C', 'not satisfied');

Q: Identify whether the reported nonsense suppression of the following variant is 0.2 or greater: G6U C83G
Result: satisfied

Q: Identify whether the reported nonsense suppression of the following variant is 0.2 or greater: U4C A24C
Result: satisfied

Q: Identify whether the reported nonsense suppression of the following variant is 0.2 or greater: U55C C75A
Result: satisfied

Q: Identify whether the reported nonsense suppression of the following variant is 0.2 or greater: C3G C29G A54U
Result: not satisfied

Q: Identify whether the reported nonsense suppression of the following variant is 0.2 or greater: C27A U55A G85A
Result: not satisfied

Q: Identify whether the reported nonsense suppression of the following variant is 0.2 or greater: C1U U20A G73C
Result: satisfied

Q: Identify whether the reported nonsense suppression of the following variant is 0.2 or greater: A31G G84A
Result: not satisfied

Q: Identify whether the reported nonsense suppression of the following variant is 0.2 or greater: U4C G61U C79G A89G
Result: not satisfied
